B1: HDV Ribozyme (parent)
chain: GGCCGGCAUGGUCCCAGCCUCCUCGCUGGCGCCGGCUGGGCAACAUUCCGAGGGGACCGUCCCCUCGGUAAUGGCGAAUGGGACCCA

- Variants of: B1
- METHOD DESCRIPTION: self-cleavage, relative activity (ratio to wild type); higher = more cleavage; co-transcriptional
Each entry below carries its recorded self-cleavage.
A bare number is all that is needed in reply.

MUTATION LIST | self-cleavage
U37A C85U | 0.259

// recorded self-cleavage for C58G U79A : 0.571

// recorded self-cleavage for C15U G74A : 0.383

// recorded self-cleavage for U20A A83U : 0.0978

// recorded self-cleavage for G25A A56C : 0.325

// recorded self-cleavage for C22U C36G : 0.162
